# Target Of Assay: MS2 coat protein, dlFG mutant (Escherichia phage MS2, UniProt P03612, del68-81insG)
# Test Method Notes: 4 mM Mg2+; no ligand; RNA-MaP array; 100 mM Tris-HCl pH 7.5, 80 mM KCl, 4 mM MgCl2, 0.1 mg/mL BSA, 1 mM DTT, 0.01 mg/mL yeast tRNA, 0.01% Tween-20; protein 1.5 nM to 3 uM; 37 C (Table S3)
# Condition: chain copies: 2; label: tethered by stalled RNA polymerase
pKd: −log10 of the molar value.
Answer no if pKd is under 7, and yes if it is 7 or more.

IN: Textbook exercise: given the entry Eterna 7709687 (Same State - Tryptophan B) (ssRNA) RNA: UAUUAAGUGACGGCCGCCACUAUGGUGAUUUAUUUGUUUGAGUGAUGUUUUGAUGUUUGAUUUUGUAGGACCGGGUUAUGUGUUA , state whether its pKd is greater than or equal to 7.
OUT: no

IN: Now consider Eterna 6417730 (Small Loop Same State NG 3) (ssRNA) RNA: ACAUGAGGAUCUCCCAUGUAAAAUUAGGAUAUAUAACUGCACAUGAGGAUCACCCAUGUUUAACCGUAGAAGGGAUAAAUAAUU .
OUT: no

IN: Also, Eterna 7692481 (Exclusion - Theophylline B) (ssRNA) RNA: UUAGUUGAAAGUGAUACCAGACGAGUGAAGGGAAGAAAUUAAGUUGGAGUGAUGUUCCGCGUCCCUUGGCAGCACUUUGUAAUUU please.
OUT: no

IN: Request: Eterna 7697814 (Same State - Tryptophan B) (ssRNA) RNA: AGUAGUUGGACGGCCGCCACUGGAACAGCUUUGCCAAAGGCAGAGCACUAGAGUGAUGUUCUAGCUAGGACCGGGUCCAACUACA
OUT: no

IN: And what about the binder AAAACAUGAGGAUCACCCAUGUAAA (ssRNA) [Eterna 1 (MS2 control)] ?
OUT: yes

IN: Now give it for Eterna 7684764 (Exclusion - Tryptophan B) (ssRNA) RNA: AAUAAAAUCACGGCCGCCACUGAUGUUAAUAUUAGCAGUGAUGUUGCUAUGUCGUUUUUAUUUAACAGGACCGGGUGAAUAUUUA too.
OUT: no

IN: Next binder: Eterna 7734801 (Same State - FMN B) (ssRNA) RNA: UGUACCGAGUCAGGAUAUGUCGUCGAAAGACGAAUCCUAGUGAUGUUAGGGAUCUGCGAAAGCAGUGCAGAAGGGACUUGGUACU
OUT: no

IN: Moving on to the next binder: Eterna 7632613 (Same State - Theophylline B) (ssRNA) RNA: GGGUGUGAUCCGGAUACCAGCGAACAUGAGGAUCACCCAUGUGACCUGAGAUCGGCUCUACGCCCUUGGCAGCCGCGGUCGCAGG
OUT: yes

Hello, the source for this data is paper PMC9170038, in case you need it.
